Task for the reader: assign each of the following compounds its reported pEC50.
target: human D2R/β-arrestin (Homo sapiens (Human)); assay: Gi/cAMP agonist assay (Lance Ultra cAMP, forskolin); type: cell-based; conditions: CHO-K1 cells expressing human D2R/β-arrestin; agonist mode, 2.5 μM forskolin
pEC50: −log10 of the molar value.

CC1(Oc2ccc(Cl)cc2)CCN(CCOc2ccccc2Cl)C1 (centres unmarked)    < 4.52
CC1(Oc2ccc(Cl)cc2)CCN(CCOc2cccc3ccccc23)C1 (centres unmarked)    6.00 to 7.00
CC1(Oc2ccc(Cl)cc2)CCN(CCOc2ccc3ccccc3c2)C1 (centres unmarked)    < 4.52
CC1(Oc2cccc(N)c2)CCN(CCOc2ccccc2)C1 (centres unmarked)    6.00 to 7.00

GET /values?readout=pEC50&item= CC(C)Oc1ccc(F)cc1OCCN1CCC(C)(Oc2ccc(Cl)cc2)CC1
6.00 to 7.00

###

target: human D2R/β-arrestin (Homo sapiens (Human), UniProt P14416); experiment: cell-based; conditions: β-arrestin Antagonist, CHO-K1 cells expressing human D2R/β-arrestin; antagonist mode, quinpirole 130 nM
Sequence (P14416 whole entry): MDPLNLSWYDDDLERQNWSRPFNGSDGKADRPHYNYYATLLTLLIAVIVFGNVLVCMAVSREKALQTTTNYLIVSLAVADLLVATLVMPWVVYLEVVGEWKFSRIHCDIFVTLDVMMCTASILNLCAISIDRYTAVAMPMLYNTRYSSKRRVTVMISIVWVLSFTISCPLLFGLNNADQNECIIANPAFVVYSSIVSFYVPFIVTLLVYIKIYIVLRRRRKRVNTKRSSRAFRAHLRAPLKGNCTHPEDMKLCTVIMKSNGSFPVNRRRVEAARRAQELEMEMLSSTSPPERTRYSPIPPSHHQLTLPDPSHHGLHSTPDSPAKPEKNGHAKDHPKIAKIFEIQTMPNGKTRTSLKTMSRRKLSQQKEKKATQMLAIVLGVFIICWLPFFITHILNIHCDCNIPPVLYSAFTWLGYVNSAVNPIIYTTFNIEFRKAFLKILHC
Kindly state IC50 for each of the entries shown.

Previously resolved entries follow.
CC1(Oc2ccccc2)CCN(CCOc2ccccc2)C1 (centres unmarked)    0.1 to 1 µM
CC1(Oc2ccc(Cl)cc2)CCN(CCOc2ccc(C(F)(F)F)cc2)CC1    > 30 µM
OC1(c2ccccc2)CCN(CCOc2ccccc2)C1 (centres unmarked)    1 to 10 µM

For each of the compounds below, state IC50.
1. CC1(Oc2ccc(Cl)cc2)CCN(CCOc2ccc(Cl)c(Cl)c2)C1 (centres unmarked)
2. Clc1ccc2c(c1)CC1(CCN(CCOc3ccccc3)C1)O2 (centres unmarked)
3. CC1(Oc2cccc(C(F)(F)F)c2)CCN(CCOc2cc(F)ccc2F)C1 (centres unmarked)
4. CC1(Oc2ccccc2)CCN(CCOc2ccc(C(F)(F)F)cc2)CC1
5. CC1(C(=O)c2ccccc2)CCN(CCOc2ccccc2C(F)(F)F)CC1
6. CC1(C(=O)Nc2ccccc2)CCN(CCOc2ccccc2F)CC1
7. CNC(=O)C1(C)CCN(CCOc2ccccc2F)CC1

["1 to 10 µM", "1 to 10 µM", "1 to 10 µM", "> 30 µM", "0.1 to 1 µM", "0.1 to 1 µM", "1 to 10 µM"]

For each entry beneath this line, provide reported IC50.
1. CC1(Oc2ccc(Cl)cc2)CCN(CCCCOc2ccccc2)CC1
2. COC1(C)CCN(CCOc2ccccc2C(F)(F)F)CC1
3. CC1(Oc2ccc(Cl)cc2)CCN(CCOc2ccc(F)cc2S(C)(=O)=O)CC1
4. CC1(Oc2ccc([N+](=O)[O-])cc2)CCN(CCOc2ccccc2)C1 (centres unmarked)
5. COc1ccccc1OCCN1CCC(C)(Oc2ccccc2)CC1
6. CC1(Oc2ccc(Cl)cc2)CCN(CCCCOc2ccccc2F)C1 (centres unmarked)
7. CC1(Oc2cccc(F)c2)CCN(CCOc2ccccc2)C1 (centres unmarked)

1: 10 to 30 µM; 2: 0.1 to 1 µM; 3: 1 to 10 µM; 4: 1 to 10 µM; 5: 0.1 to 1 µM; 6: 1 to 10 µM; 7: 1 to 10 µM

Okay, here is my list. What is IC50 for each of these?
1. CC1(Oc2ccc(Cl)cc2)CCN(CCOc2ccc(F)cc2)CC1
2. CNCC1(C)CCN(C[C@H]2COc3ccccc3O2)CC1
3. CC1(O)CCN(CCOc2ccccc2F)CC1

["1 to 10 µM", "1 to 10 µM", "1 to 10 µM"]
